# assay-remarks: Drug repurposing screens with cells derived from glioblastoma tumor samples (AID 1345199); also: % is scaled to controls: 0 for no effect and ±100 for the full control effect; nearly all actives have a fitted effect of over 40% in size
# measurement-context: GBM patient neurospheres viability, ATP luminescence, 48 h; at 46.1 µM (top of the series); tumour line C
Inconclusive results are not listed.
observable: activity, negative = cell killing (%)

- C=C[C@@]1(C)CC(=O)[C@]2(O)[C@@]3(C)[C@@H](O)CCC(C)(C)[C@@H]3[C@H](O)[C@H](OC(C)=O)[C@@]2(C)O1: -36.3
- O=C1OC2(c3ccccc31)c1cc(Br)c(O)c(Br)c1Oc1c2cc(Br)c(O)c1Br: -34.7
- CCCCN=C(N)N=C(N)N: -8.24
- CCN1CCN(C(=O)N[C@@H](C(=O)N[C@@H]2C(=O)N3C(C(=O)O)=C(CSc4nnnn4C)CS[C@H]23)c2ccc(O)cc2)C(=O)C1=O: 0.963
- COc1ccc(CCN(C)CCCN2CCc3cc(OC)c(OC)cc3CC2=O)cc1OC: -18
- CC[N+](C)(CC)CCOC(=O)C(O)(c1ccccc1)C1CCCCC1 (stereo not given): -9.68
- Cc1ccc(-c2ncc(Cl)cc2-c2ccc(S(C)(=O)=O)cc2)cn1: -0.632
- NC(=O)c1ccccc1O: 4.05
- CCc1ccc(C(=O)C(C)CN2CCCCC2)cc1 (stereo not given): -19
- NCCNC(=O)c1ccc(Cl)cn1: -12.2
- OC[C@H]1O[C@@H](Oc2ccc(O)cc2)[C@H](O)[C@@H](O)[C@@H]1O: -9.99
- CC1(C)OC[C@@H]2O[C@@]3(C(=O)O)OC(C)(C)O[C@H]3[C@@H]2O1: -11.9
- CCCN(CCC)S(=O)(=O)c1ccc(C(=O)O)cc1: -7.91
- Cc1cc(-c2ccccc2)nnc1NCCN1CCOCC1: -11.7
- OC(C#CCN1CCCC1)(c1ccccc1)c1ccccc1: -29.1
- NS(=O)(=O)c1ccc(Cl)c(S(N)(=O)=O)c1: 27.6
- CCOCCn1c(N2CCCN(C)CC2)nc2ccccc21: -16
- CCNC(=O)NCc1cccc(Cl)c1: -10.1
- COc1cc(C(=S)N2CCOCC2)ccc1O: -22.1
- CC(=O)Nc1ncc([N+](=O)[O-])s1: -21.7
- Nc1ccc(S(=O)(=O)NCc2ccccc2)cc1: -10.5
- CN(C)CCOC(c1ccc(Cl)cc1)c1ccccn1 (stereo not given): 3.84
- COc1ccc2c(c1)c1c3n2CCN(C)C3=NCC1: -23.1
- O=[N+]([O-])c1ccc(/C=N\O)o1: 1.04
- C[C@@H](O)[C@H]1C(=O)N2C(C(=O)O)=C([C@H]3CCCO3)S[C@H]12: -5.94

###

# Tested on: CP335
# assay-remarks: qHTS profiling for inhibitors of Plasmodium falciparum proliferation (AID 504749); also: nearly all actives have a fitted effect of over 60% in size; also: potency is read from the fitted curve at half-maximal effect
# measurement-context: P. falciparum in erythrocytes, SYBR Green DNA, 72 h; series mostly up to 28.7 µM
Records with an inconclusive call do not appear. The source made the active and inactive calls. Calls come from the whole dose curve; as a rule, active = well fitted inhibition curve with a large enough effect; inconclusive = small, poorly fitted or top-dose-only effect; inactive = flat fitted curve, though single readings scatter.
observable: Potency

* NC(=O)c1ccccc1O | inactive
* CCOC(=O)Nc1ccc2c(c1)N(C(=O)CCN1CCOCC1)c1ccccc1S2 | inactive
* CCNC(=O)/C=C/c1cccc(Br)c1 | inactive
* CC(C)(C)NC[C@H](O)COc1cccc2c1CCCC2=O | inactive
* CCCCNC(=O)NS(=O)(=O)c1ccc(N)cc1 | inactive
* COc1ccc(-c2cc(C(F)F)nn2-c2ccc(S(N)(=O)=O)cc2)cc1F | inactive
* CCCCCCCC/C=C\CCCCCCCCN | inactive
* NS(=O)(=O)c1cc(C(=O)O)cc(N2CCCC2)c1Oc1ccccc1 | inactive
* CNCCc1ccccn1 | inactive
* CN(C)CCC[C@@]1(c2ccc(F)cc2)OCc2cc(C#N)ccc21 | inactive
* Cc1ccccc1OCC(O)CO (stereo not drawn) | inactive
* O=C(Nc1cccc(C2=NCCN2)c1)Nc1cccc(C2=NCCN2)c1 | 12 µM (active)
* Oc1ccccc1C=NCc1ccccc1 | inactive

###

# Tested on: HB3
# assay-remarks: qHTS profiling for inhibitors of Plasmodium falciparum proliferation (AID 504749); also: nearly all actives have a fitted effect of over 60% in size; also: potency is read from the fitted curve at half-maximal effect
# measurement-context: P. falciparum in erythrocytes, SYBR Green DNA, 72 h; series mostly up to 28.7 µM
Results filed as inconclusive are left out. The source made the active and inactive calls. The call rests on the fitted dose curve; in most records, active means well fitted inhibition curve with a large enough effect; inconclusive means small, poorly fitted or top-dose-only effect; inactive means flat fitted curve, though single readings scatter.
observable: Potency

- CCCCN=C(N)N=C(N)N: inactive
- OC[C@H]1O[C@@H]2O[C@H]3[C@H](O)[C@@H](O)[C@@H](O[C@H]4[C@H](O)[C@@H](O)[C@@H](O[C@H]5[C@H](O)[C@@H](O)[C@@H](O[C@H]6[C@H](O)[C@@H](O)[C@@H](O[C@H]7[C@H](O)[C@@H](O)[C@@H](O[C@H]8[C@H](O)[C@@H](O)[C@@H](O[C@H]1[C@H](O)[C@H]2O)O[C@@H]8CO)O[C@@H]7CO)O[C@@H]6CO)O[C@@H]5CO)O[C@@H]4CO)O[C@@H]3CO: inactive
- CCc1oc2ccccc2c1C(=O)c1cc(Br)c(O)c(Br)c1: inactive
- CCCCNc1ccc(C(=O)OCCOCCOCCOCCOCCOCCOCCOCCOCCOC)cc1: inactive
- CCOc1ccccc1C(N)=O: inactive
- C[C@@H](O)[C@H]1C(=O)N2C(C(=O)O)=C(S[C@@H]3CN[C@H](CNS(N)(=O)=O)C3)[C@H](C)[C@H]12: inactive
- NC(=O)c1ccccc1O: inactive
- Cc1cc(CC(=O)O)c(C)n1-c1ccc(Cl)cc1: inactive
- CC(=O)Nc1ncc([N+](=O)[O-])s1: inactive
- CCNC(=O)NCc1cccc(Cl)c1: inactive
- Cc1cc(-c2ccccc2)nnc1NCCN1CCOCC1: inactive
- O=C(c1ccc(F)cc1)C1CCN(CCn2c(=S)[nH]c3ccccc3c2=O)CC1: 11.2 µM (active)
- OC(C#CCN1CCCC1)(c1ccccc1)c1ccccc1: inactive
- CC(=O)NC(=O)c1ccccc1O: inactive
- CC[C@H](c1ccc(O)cc1)[C@@H](CC)c1ccc(O)cc1: inactive
- CCCN(CCc1cccs1)[C@H]1CCc2c(O)cccc2C1: 10 µM (active)
- CCN(CC)CCNC(=O)c1cc(Br)c(N)cc1OC: inactive
- CCNC(=O)/C=C/c1cccc(Br)c1: inactive
- CC(=O)Nc1ccc(OCC(O)CNC(C)C)cc1 (stereo not drawn): inactive
- Cc1cccc(C)c1NC(=O)c1ccccc1C(=O)O: inactive
- C[N+]1(CC2COC(c3ccccc3)(C3CCCCC3)O2)CCCCC1 (stereo not drawn): 4.47 µM (active)
- O[C@@H](c1cc(C(F)(F)F)nc2c(C(F)(F)F)cccc12)[C@H]1CCCCN1: 0.0562 µM (active)
- OCCOCCN1CCN(C2=Nc3ccccc3Sc3ccccc32)CC1: inactive

###

# System: W2
# assay-remarks: qHTS profiling for inhibitors of Plasmodium falciparum proliferation (AID 504749); also: nearly all actives have a fitted effect of over 60% in size; also: potency is read from the fitted curve at half-maximal effect
# measurement-context: P. falciparum in erythrocytes, SYBR Green DNA, 72 h; series mostly up to 28.7 µM
Results filed as inconclusive are left out. Calls of active or inactive are those of the source. Calls come from the whole dose curve; as a rule, active = well fitted inhibition curve with a large enough effect; inconclusive = small, poorly fitted or top-dose-only effect; inactive = flat fitted curve, though single readings scatter.
observable: Potency

* Nc1nc(-c2ccccc2)c(Br)c(=O)[nH]1 | inactive
* CCC(C(=O)OCCOCCN(CC)CC)c1ccccc1 (stereo unspecified) | 12 µM (active)
* CCCCNC(=O)NS(=O)(=O)c1ccc(N)cc1 | inactive
* CN1CCN(C2=Nc3ccccc3Sc3ccc(Cl)cc32)CC1 | 3.79 µM (active)
* Nc1ccc(S(=O)(=O)NCc2ccccc2)cc1 | inactive
* O=C(c1ccc(F)cc1)C1CCN(CCn2c(=S)[nH]c3ccccc3c2=O)CC1 | 2.39 µM (active)

###

# assay-remarks: Primary qHTS for inhibitors of nuclear receptor binding SET domain protein 2 (NSD2) in an isogenic RCH-ACV NSD2 p.E1099K mutant (9B) (AID 1645876); also: nearly all actives have a fitted effect of over 70% in size
# measurement-context: RCH-ACV (leukaemia line) NSD2 E1099K (9B) viability, CellTiter-Glo, 72 h; series mostly up to 44.9 µM
Inconclusive results are not listed. Active and inactive are the calls of the source. Calls come from the whole dose curve; as a rule, active = well fitted inhibition curve with a large enough effect; inconclusive = small, poorly fitted or top-dose-only effect; inactive = flat fitted curve, though single readings scatter.
Outcome codes: active, inactive

• CCCCC(CC)COC(=O)/C=C/c1ccc(OC)cc1 (stereo not drawn) = inactive
• Cc1c(-c2ccccc2)oc2c(C(=O)OCCN3CCCCC3)cccc2c1=O = inactive
• COC(=O)C(c1ccccc1Cl)N1CCc2sccc2C1 (stereo not drawn) = inactive
• CCCCOC(=O)CC(CC(=O)OCCCC)(OC(C)=O)C(=O)OCCCC = inactive
• CCCCCCCCCCCCCC[N+](C)(C)Cc1ccccc1 = active
• OCc1ccccn1 = inactive
• CCOCCn1c(N2CCCN(C)CC2)nc2ccccc21 = inactive
• CCCCCCCCCCCCCCCCO = inactive
• O[C@@H](c1cc(C(F)(F)F)nc2c(C(F)(F)F)cccc12)[C@H]1CCCCN1 = active
• Cc1ccccc1OCC(O)CO (stereo not drawn) = inactive
• O=C(O)C(Cc1cc(I)c(O)c(I)c1)c1ccccc1 (stereo not drawn) = inactive
• Cc1cn([C@H]2C[C@H](F)[C@@H](CO)O2)c(=O)[nH]c1=O = inactive
• CC(C)[C@@H]1CC[C@@H](C)CC1=O = inactive
• CCO[C@@H]1O[C@H](C(COCc2ccccc2)OCc2ccccc2)[C@H](OCc2ccccc2)[C@H]1O (stereo partly drawn) = active
• O=C(O)CCc1nc2ccccc2[nH]1 = inactive
• Cc1ccc(S(=O)(=O)NC(=O)NC2CCCC2)cc1 = inactive
• C=C1c2cccc(O)c2C(O)=C2C(=O)[C@]3(O)C(O)=C(C(N)=O)C(=O)[C@@H](N(C)C)[C@@H]3[C@@H](O)[C@H]12 = inactive
• CN1CCC(OC(c2ccccc2)c2ccccc2)CC1 = inactive
• CCN(CC)CCNC(=O)c1cc(Br)c(N)cc1OC = inactive
• CC(=O)Nc1ccc(S(=O)(=O)Nc2ccc([N+](=O)[O-])cc2)cc1 = inactive
• CC(C)Cn1cnc2c1c(=O)n(C)c(=O)n2C = inactive
• CCN(CC)CCNc1ccc(CO)c2sc3ccccc3c(=O)c12 = active
• FC1(F)C(F)(F)C(F)(F)C2(F)C(F)(F)C(F)(F)C(F)(F)C(F)(F)C2(F)C1(F)F (stereo not drawn) = inactive
• CC(C)(C)CC(C)(C)c1ccc(O)c(-n2nc3ccccc3n2)c1 = inactive
• Cc1cc2c(OCC(CNC(C)(C)C)OC(=O)c3ccccc3)cccc2[nH]1 (stereo not drawn) = inactive
• CC(=O)O[C@]1(C(C)=O)CC[C@H]2[C@@H]3C=C(C)C4=CC(=O)CC[C@]4(C)[C@H]3CC[C@@]21C = inactive
• C#C[C@]1(O)CC[C@H]2[C@@H]3CCc4cc(OC)ccc4[C@H]3CC[C@@]21C = inactive
• CN1CCN(CCC(=O)N2c3ccccc3Sc3ccc(C(F)(F)F)cc32)CC1 = active
• CCOc1cc(OCC)c(C(=O)CCC(=O)O)cc1OCC = inactive
• COc1cc(C(=O)NCc2ccc(OCCN(C)C)cc2)cc(OC)c1OC = inactive
• NC(=O)C1(N2CCCCC2)CCN(CCCC(=O)c2ccc(F)cc2)CC1 = inactive
• O=C(NCCc1c[nH]c2ccccc12)c1cccnc1 = inactive
• O=C(CN1CCN(Cc2ccc3c(c2)OCO3)CC1)N1c2ccccc2Sc2ccccc21 = inactive
• O=C(Oc1cccc2cccnc12)c1ccccc1 = inactive
• O=C(O)Cc1csc(-c2ccc(Cl)cc2)n1 = inactive
• CCCCN1C[C@H](O)[C@@H](O)[C@H](O)[C@H]1CO = inactive
• CCCCCCCCNC(C)C(O)c1ccc(SC(C)C)cc1 (stereo not drawn) = active
• COc1cc(C)nc(-n2nc(C)cc2OC)n1 = inactive
• NS(=O)(=O)c1ccc(Cl)c(S(N)(=O)=O)c1 = inactive
• CC(C)CCCC(C)N (stereo not drawn) = inactive
• CCN(CC)CCOc1ccccc1C(=O)CCc1ccccc1 = inactive
• CN1CCN(c2cc3c(cc2F)c(=O)c(C(=O)O)cn3-c2ccc(F)cc2)CC1 = active
• CC(CNC1CCCCC1)OC(=O)c1ccccc1 (stereo not drawn) = inactive
• Cc1cccc(C)c1NC(=O)CN1CCCC1 = inactive
• OCCOCCN1CCN(C2=Nc3ccccc3Sc3ccccc32)CC1 = inactive
• Oc1c(Cl)cc(Cl)c(Cl)c1Cc1c(O)c(Cl)cc(Cl)c1Cl = active
• CCCCC(CC)COC(=O)c1ccc(N(C)C)cc1 (stereo not drawn) = inactive
• CC(=O)Nc1ncc([N+](=O)[O-])s1 = inactive

Sourced from PubChem BioAssay (NCATS)
